Data credit: ChEMBL document CHEMBL1201862

- System: HOP-62
- Assay Explanation: NCI tumour cell line growth inhibition, 48 h
The source made the active and inactive calls. No stated cut-off is given here; in the data, active = GI50 up to about 1.1 µM and inactive = higher.
Choose the fitting class; nothing outside active, inactive is accepted.

COC(=O)[C@@H]1C[C@@H]2c3ccccc3N(S(=O)(=O)c3ccccc3)[C@@H]2N1C(=O)OC
inactive
O=C1/C(=C/c2ccc(O)cc2)CCc2ccc([N+](=O)[O-])cc21
inactive
CN(C)C1=Nc2ccccc2C(=S)N2CSCC12 (configuration not stated)
inactive
OCC1CC2CC1C1(C2)OCCO1 (configuration not stated)
inactive

Prompt: Status in this test for `CN1CCN(CCCNN)CC1` ?
Completion: inactive

Prompt: Now consider `O=C1C=CC(=O)C12CCc1ccccc12` .
Completion: inactive

Prompt: How about this compound: `C[C@]12CCC(=O)C(O)=C1CCC2=O`
Completion: inactive

Prompt: Try COC(=O)/C(=N/O)C(C(=O)C=C(C)C)C(=O)C(=O)Nc1nc2ccc([N+](=O)[O-])cc2s1 (configuration not stated) next.
Completion: inactive

Prompt: Check CC1CCC(O)(C(C)(C(=O)O)c2ccccc2)CC1 (configuration not stated) too.
Completion: inactive

---

- Tested on: SK-OV-3
- Assay Explanation: NCI tumour cell line growth inhibition, 48 h
Calls of active or inactive are those of the source. No stated cut-off is given here; in the data, active = GI50 up to about 1.1 µM and inactive = higher.
Outcome Measure: GI50

CC(=O)c1ccc2c(c1)CC1(C2)Cc2ccccc2C1=O (centres undefined)
> 100 µM (inactive)
CSc1nc(NC2CCCC2)c2cc[nH]c2n1
> 100 µM (inactive)
COc1ccc2nc3ccc(OC)cc3c([S+]([O-])Cc3ccc([N+](=O)[O-])cc3)c2c1 (centres undefined)
21.1 µM (inactive)

Switching to the query record.
Prompt: Please report the recorded GI50 for `Oc1ccc(Br)cc1/C=N/c1ccc(/N=C/c2cc(Br)ccc2O)cc1` .
Completion: > 100 µM (inactive)

---

- System: CAKI-1
- Assay Explanation: NCI tumour cell line growth inhibition, 48 h
The source made the active and inactive calls. Rule as the data show it: active = GI50 up to about 1.1 µM and inactive = higher.
Result category, one only: yes (1) (active), no (0) (inactive)

Known results for molecules:
O=C(NCc1ccccc1)c1nn[nH]c1O
no (0)
CC1=C(/C=C/C(C)=C/C2CC(N(C)C)=CC(=O)O2)C(C)(C)CCC1 (stereo not given)
no (0)
CC1(C)C/C(=N/O)c2c(nc3ccc4ccccc4c3c2-c2ccc(Cl)cc2)C1
no (0)
CC(C)(C)C1CCC2c3c([nH]c4ccccc34)C3C(=O)N(c4cccc(Cl)c4)C(=O)C3C2C1 (stereo not given)
no (0)
Cc1ccc(S(=O)(=O)N2CCN(CCN(C)CCN3CCN(S(=O)(=O)c4ccc(C)cc4)CC3)CC2)cc1
no (0)

Prompt: State the result this test recorded for COC(=O)CCC1(C)C2CCC1/C(=N/O)C2 (stereo not given) .
Completion: no (0)

Prompt: Moving on to the next molecule: `Cc1ccccc1C(=O)c1cc(O)ccc1O`
Completion: no (0)

Prompt: Now the same for `O=C(NC1CCCCC1)c1nn[nH]c1Cl`
Completion: no (0)

Prompt: Now the same for `Cc1ccccc1C(=O)N1CCc2c([nH]c3ccccc23)C1`
Completion: no (0)

Prompt: Can you check CN1C2CCC1CC(CC(=O)NC(c1ccc(F)cc1)c1ccc(F)cc1)C2 (stereo not given) next?
Completion: no (0)

Prompt: Please give the result for CC(C)(C)OC(=O)NCCCCC(NC(=O)OCc1ccccc1)C(N)=O (stereo not given) too.
Completion: no (0)

Prompt: Entry CC(=O)OC12c3ccccc3C(c3ccccc31)C1C(=O)N(N=C(C)C)C(=O)C12 (stereo not given) please
Completion: no (0)

---

- System: NCI-H460
- Assay Explanation: NCI tumour cell line growth inhibition, 48 h
Where a name gives a salt, the structure may show the parent alone. Calls of active or inactive are those of the source. Rule as the data show it: active = GI50 up to about 1.1 µM and inactive = higher.
Outcome Measure: GI50

These recorded examples may help you get a feel for the data.
CC(C)C[C@H]1C(=O)N2CCC[C@H]2[C@]2(O)O[C@](NC(=O)[C@@H]3C=C4c5cccc6[nH]c(Br)c(c56)C[C@H]4N(C)C3)(C(C)C)C(=O)N12 [BROMOCRIPTINE MESYLATE]
10.8 µM (inactive)
CC(C)C(=O)N1Cc2cc(Cl)cc(Cl)c2OC(=O)c2ccccc21
33 µM (inactive)

Alright, here's another compound for you.
Prompt: Find the recorded GI50 belonging to CC1=Nc2c(O)nc(S)nc2NC(c2ccc(Cl)c(Cl)c2)C1 (stereo not drawn) and report it.
Completion: 67.8 µM (inactive)

---

- Tested on: LOX IMVI
- Assay Explanation: NCI tumour cell line growth inhibition, 48 h
Active and inactive are the calls of the source. Rule as the data show it: active = GI50 up to about 1.1 µM and inactive = higher.
Reported GI50 by item:

Nc1nc(-c2ccc(Cl)c([N+](=O)[O-])c2)cs1
> 100 µM (inactive)

For the next question, use this compound.
Prompt: Item under review: CC(C(=O)O)C(C)(O)C(=O)O (configuration not stated) . Reported GI50?
Completion: > 100 µM (inactive)

---

- Test system: RXF 393
- Assay Explanation: NCI tumour cell line growth inhibition, 48 h
Calls of active or inactive are those of the source. No stated cut-off is given here; in the data, active = GI50 up to about 1.1 µM and inactive = higher.
Valid outcomes are listed here; reply with one: Yes = active, No = inactive

Consider the following illustrative entries.
O=C(NC1CCCCC1)c1nn[nH]c1Cl
No
O=C1[C@H](O)[C@@H]2CCC[C@@]23CCCN13
No
COC(=O)/C=C/CC(=O)NS(C)(=O)=O
No

Prompt: Per the assay record, what outcome was assigned to CC1=Nc2c(O)nc(S)nc2NC(c2ccc(Cl)c(Cl)c2)C1 (configuration not stated) ?
Completion: No

Prompt: Now the molecule `CC(=N/NC(=S)N1CCCCC1)/C(C)=N\NC(=S)N1CCCCC1`
Completion: No

Prompt: Would you mind doing `CCc1n[nH]c(=O)n1NC(=O)c1ccccc1C(=O)O` as well?
Completion: No

Prompt: Repeat with COC(=O)C1(C)CCCC2(C)C3CCC4CC3(C=C4CO)CCC12 (configuration not stated)
Completion: No

---

- Test system: MCF7
- Assay Explanation: NCI tumour cell line growth inhibition, 48 h
Calls of active or inactive are those of the source. Rule as the data show it: active = GI50 up to about 1.1 µM and inactive = higher.
Please reply with one of these outcomes: active, inactive

Below are worked cases with known answers.
COC(=O)c1cc2c(n1S(=O)(=O)c1ccc(C)cc1)C(=O)C(=O)c1[nH]cc(C(=O)OCc3ccccc3)c1-2
active
C[C@]12CC/C(=N\O)C=C1CC[C@@H]1[C@@H]2CC[C@]2(C)C(=N/O)/C(=C/c3ccncc3)C[C@@H]12
inactive

Prompt: Recorded call for `CCOC(=O)c1ccc(N(CCOS(C)(=O)=O)CCOS(C)(=O)=O)cc1` ?
Completion: inactive

Prompt: What about this compound? `Oc1ccc(-c2cn3cc(C(F)(F)F)ccc3n2)cc1`
Completion: inactive

Prompt: And then `Clc1ccc(-c2noc(CN3CCCCC3)n2)cc1` , what is it?
Completion: inactive

Prompt: For Oc1ccc2c(c1)OCC(O)(c1ccccc1O)C2 (stereo not given) then?
Completion: inactive

Prompt: Also `CCOC(=O)/C(C#N)=C(/NNc1ccccc1)c1ccncc1C(=O)O` , if possible.
Completion: inactive

Prompt: Now give it for `O=C(CSc1nc2nncc-2c(O)[nH]1)c1ccc(Cl)cc1` too.
Completion: inactive

Prompt: What about `CCOC(=O)CN(CC)C(=O)NC12CC3CC(CC(C3)C1)C2` ?
Completion: inactive

Prompt: Again, but for `COc1ccc(/N=N/c2ccc3oc(=O)c(C(=O)Nc4ccc(OC)cc4)cc3c2)cc1`
Completion: inactive

---

- System: HCT-116
- Assay Explanation: NCI tumour cell line growth inhibition, 48 h
Activity calls are given as the source filed them. Cut-off read from the data, not from the text of the source: active = GI50 up to about 1.1 µM and inactive = higher.
Item-by-item account of GI50

Example entries and their recorded answers appear below.
Cc1ccccc1C(=O)N1CCc2c([nH]c3ccccc23)C1
17.7 µM (inactive)
CCOC(=O)C1=C(C)N(NC(=O)Nc2ccccc2)C(=O)C1=P(c1ccccc1)(c1ccccc1)c1ccccc1
39.1 µM (inactive)

Prompt: Value lookup for GI50; key = `CCCCCCOc1ccc(NC2=C(Cl)C(=O)c3c(O)ccc(O)c3C2=O)cc1`
Completion: 1.6 µM (inactive)

---

Known GI50 of a selection of compounds
- System: SF-295
- Assay Explanation: NCI tumour cell line growth inhibition, 48 h
Activity calls are given as the source filed them. Cut-off read from the data, not from the text of the source: active = GI50 up to about 1.1 µM and inactive = higher.

Guide cases for GI50, answers given:
O=C(/C=C/c1ccc(OCC(=O)N2CCN(c3ccccc3)CC2)cc1)c1ccccc1
23.3 µM (inactive)
Cc1cc(NS(=O)(=O)c2ccc(NC(=O)c3ccc4nc5ccccc5c(Nc5ccc(S(N)(=O)=O)cc5)c4c3)cc2)no1
26.6 µM (inactive)
Cn1c(SCc2ccc(F)cc2)nnc1C12CC3CC(CC(C3)C1)C2
50.8 µM (inactive)
COC(=O)C1C(=O)CC(C)(O)C(C(=O)OC)C1c1ccc(N(C)C)cc1 (stereo unspecified)
> 100 µM (inactive)

Prompt: Kindly state the measured GI50 obtained for `COc1ccc2o/c(=N\c3ccc(F)cc3)c(C(N)=O)cc2c1` with SF-295.
Completion: 33.7 µM (inactive)

Prompt: What do you have for `C/C=C/C(=O)[C@@H](O)C(C)C` ?
Completion: > 100 µM (inactive)
